Taken from ChEMBL document CHEMBL4257501.

System: HepG2
Test: Antiproliferative activity against VEGF-stimulated human HepG2 cells after 48 hrs by CCK8 assay
Assay type: functional, cell-based
Settings: HepG2, 48 h
ASSAY_READOUT: IC50

Documented IC50 of CNC(=O)c1cc(Oc2ccc(NC(=O)Nc3ccc(Cl)c(C(F)(F)F)c3)cc2)ccn1 : 29 µM

Documented IC50 of CC(C)NC(=O)c1cc(Oc2ccc(/C=C/c3ccccn3)cc2)ccn1 : > 100 µM

Documented IC50 of COc1ccc(NC(=O)c2cc(Oc3ccc(/C=C/c4ccncc4)cc3)ccn2)cc1 : > 100 µM

Documented IC50 of O=C(Nc1ccc(Cl)cc1)c1cc(Oc2ccc(/C=C/c3ccncc3)cc2)ccn1 : 56.2 µM

Documented IC50 of O=C(c1cc(Oc2ccc(/C=C/c3ccncc3)cc2)ccn1)N1CCCC1 : 41.6 µM
